Assay: chemical genetic growth profiling, strain panel (AID 1159580);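 note: tested at 20 µM; growth read once vehicle control cultures reached saturation at 30 °C; 1 = growth at the plate median or of vehicle wells; lower values mean less growth of the strain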
Conditions: S. cerevisiae deletion strains, growth OD, locus YLR342W, strain FKS1, stronger effect = lower value
Out of some 5,500 compounds screened, about 2,000 (36%) were called active. Inconclusive results (about 18%) are left out. This is one part of the list.
valueType: normalized growth
Form: value (number only, do not type unit).

Answered examples (9):
C=C1C2=CC(=O)O[C@@H](c3ccoc3)[C@]2(C)CCC1[C@@]1(C)C=CC(=O)C(C)(C)[C@@H]1CC(=O)OC (stereo not given in full) : 0.995
C/C=C/C(=O)N(CC)c1ccccc1C : 1
C=C1C2CC[C@@]3(C)[C@H](c4ccoc4)OC(=O)C[C@]13O[C@H]1CC(=O)C(C)(C)C(CC(=O)OC)[C@@]21C (stereo not given in full) : 0.993
O=[N+]([O-])c1cccc2c(Br)[nH]nc12 : 0.987
CCCCS(=N)(=O)CCC(N)C(=O)O (stereo not given) : 0.993
O=c1[nH]cnc2[nH]ncc12 : 1.02
O=C(O)c1ccccc1C(=O)Nc1ccc(S(=O)(=O)Nc2nccs2)cc1 : 0.99
C=C1C(C2(C)C=CC(=O)C(C)(C)C2CC(=O)OC)CC[C@@]2(C)[C@H](c3ccoc3)OC(=O)C3OC132 (stereo not given in full) : 0.993
O=[N+]([O-])c1cccc2cn[nH]c12 : 1.01

Data request: Param item = `C=C1[C@H]2CC[C@@]3(C)[C@H](c4ccoc4)OC(=O)C[C@]13O[C@H]1C[C@H](O)C(C)(C)[C@H](CC(=O)OC)[C@]12C` ; retrieve measured normalized growth.
Data returned: 1.02
